protocol.details: Inhibitory concentration against Selectin E in a dynamic flow assay.
endpoint.name: IC50 (µM)
Give bare numbers, in µM.

Can you share its IC50? I mean this molecule: C[C@@H]1O[C@@H](O[C@@H]2[C@H](CO)OCC[C@H]2O[C@@H]2O[C@@H](CO)[C@H](O)[C@H](O[C@@H](CC3CCCCC3)C(=O)O)[C@@H]2O)[C@@H](O)[C@@H](O)[C@@H]1O
30
